Tested on: U2OS
Measurement Description: Multiplex assay against U2OS
Type: toxicity, cell-based
Condition Summary: human, 12 h, 10 µM, compound concentration 10 uM, replicate 1
Metric: Population Mitotic Cells (%)
Provide only the numeric value, understood in %.

Return Population Mitotic Cells (%) (reported value) for this compound: Cl.Clc1ccc2nsnc2c1NC1=NCCN1 [TIZANIDINE HYDROCHLORIDE]
22

Return Population Mitotic Cells (%) (reported value) for this compound: "O=C(O)c1cc2ccccc2c(Cc2c(O)c(C(=O)O)cc3ccccc23)c1O"
25

Return Population Mitotic Cells (%) (reported value) for this compound: "COc1cc(NC(=O)CCN2CCC(OC(=O)Nc3ccccc3-c3ccccc3)CC2)c(Cl)cc1CNC[C@H](O)c1ccc(O)c2[nH]c(=O)ccc12"
27

Return Population Mitotic Cells (%) (reported value) for this compound: "CCCC(CCC)C(=O)O"
22

New cases:
Return Population Mitotic Cells (%) (reported value) for this compound: "Oc1c(CN2CCN(c3ccccn3)CC2)cc(Cl)c2cccnc12"
15
